Experiment: basal 3T3-L1 adipocyte mitochondrial potential changes, profiling panel, cell-based, JC-1 fluorescence, 3T3-L1 adipocytes, 24 h, 100 nL compound (AID 1168); note: test concentration not given here
Conditions: JC-1 mitochondrial fluorescence, higher = more signal, called active from +8 up or from −8 down
Would you kindly list z-score for each of these compounds?
One number for each entry.

# example entries with known answers
* O=C(CS)NCCCCCCNC(=O)[C@H]1C[C@H]2C(=O)N[C@@H](Cc3ccccc3)C(=O)N2[C@H]1c1ccc(O)cc1 | -1.09
* CC(CO)N1C(=O)[C@@H]2[C@H]3C(=O)OCC=C[C@H]3OC23C=CCN(C(C)(C)C)C(=O)[C@@H]13 (some centres undefined) | -0.172

Each compound below has a reported value. Please supply its z-score.
1. C[C@]1(C(=O)NC2CC2)c2ccccc2C(=O)N(Cc2ccccc2)[C@H]1c1ccc(CO)cc1
2. CC1=C([C@H](O)CCc2ccccc2)[C@H](CO)[C@@H]2C(=O)N(C)C(=O)[C@@H]2C1
3. C[N+](C)(C)CCCCCCNC(=O)[C@H]1C[C@H]2C(=O)NCC(=O)N2[C@H]1c1ccc(O)cc1
4. COCCOC(=O)N1C(=O)[C@@]2(c3cc(C#Cc4ccc(OC)cc4)ccc31)[C@H](c1ccccc1OCCO)N1[C@H](c3ccccc3)[C@H](c3ccccc3)OC(=O)[C@H]1[C@@H]2C(=O)N1CCCCCCC1

0.195
0.459
-0.159
3.46

---

Molecular target: Carbonic anhydrase 2 (Homo sapiens)
Test: CAII small-molecule binders, profiling panel, biochemical, small-molecule microarray, Alexa647-labelled CAII (AID 1122)
Conditions: CAII-A647 binding fluorescence, higher = more signal
Readout type: composite z-score
Answers are plain numbers.

- C#CCN([C@@H](Cc1ccc(O)cc1)C(=O)OC)[C@@H](/C=C/C1CC1)[C@H](O)Cc1ccccc1: -0.303

Each compound below has a reported value. Please supply its composite z-score.
1. N#Cc1ccc(C(O)C2C=CC3C(=O)N(c4ccccc4)C(=O)C3N2Nc2ccccc2)cc1 (stereo not drawn)
2. O=C1N(Cc2ccccc2)Cc2ccccc2[C@@H]2OC(c3ccc(OCCCO)cc3)=N[C@]12CCS(=O)(=O)c1ccccc1

1. 0.722
2. 0.484

---

Experiment: E. coli acrAB mutant growth effects, primary screen, E. coli filamentation inducers, strain DRC39, OD650, 24 h (AID 1178);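 note: growth measured as culture turbidity by optical density at 650 nm; test concentration not given here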
Settings: higher = more signal, called active from +8 up or from −8 down
Lab note: anything with z-score at or over 0.3 counts as Met; the rest go in Not met.

Below, 10 molecules whose answers are already recorded.
* COc1ccc([Si](C)(C)[C@@H]2[C@@H](CC(=O)N3Cc4ccccc4C[C@H]3CO)O[C@]3(C(=O)N(C)c4ccccc43)[C@H]2C)cc1 | Met
* OCCCC1=CC(c2ccc(CN3CCCC3)cc2)N(Cc2sc3ccccc3c2Cl)CC1 (stereo not given) | Not met
* COCCOC(=O)N1C(=O)[C@@]2(c3cc(C#CC4=CCCCC4)ccc31)[C@H](c1ccc(OCCO)cc1)N1[C@H](c3ccccc3)[C@H](c3ccccc3)OC(=O)[C@H]1[C@@H]2C(=O)NC[C@H](O)c1ccccc1 | Not met
* C=CCC(OC(C)=O)[C@@H]1[C@@H](N(Cc2cc3ccccc3o2)C(=O)c2ccc(C)cc2)c2cc(OCCCO)ccc2N1C(=O)Cc1ccc(OC)cc1 (stereo not given in full) | Not met
* O=C1C2C=CC(C(O)c3ccc(F)cc3)N(n3cnnc3)C2C(=O)N1Cc1ccccc1 (stereo not given) | Not met
* C=C(C(=O)CC[C@@H](OC(C)=O)c1ccc(CO)o1)C(C)C | Not met
* CCCNC(=O)[C@@H]1c2ccccc2C(=O)N(C(C)C)[C@H]1c1ccc(CO)cc1 | Met
* COC(=O)[C@H](Cc1ccccc1)N1CC(/C=C/C2CC2)=C[C@H]1[C@H](O)Cc1ccccc1 | Not met
* C=CCOC(=O)[C@H]1[C@@H]2C(=O)O[C@@H](c3ccccc3)[C@@H](c3ccccc3)N2[C@@H](c2ccc(OCCOC(=O)[C@@H]3C[C@@H]4C(=O)N[C@@H](CCCCN(C)C)C(=O)N4[C@@H]3c3ccc(O)cc3)cc2)[C@]12C(=O)Nc1ccccc12 | Not met
* O=C(NCCCCCNC(=O)/C(Cc1ccccc1)=N/O)OCc1ccccc1 | Met

// inclusive: z-score at least 0.3? input: O=C1OCC=C[C@H]2OC34C=CCN(Cn5nnc6ccccc65)C(=O)[C@H]3N(CCCO)C(=O)[C@@H]4[C@@H]12 (stereo not given in full) Not met

// inclusive: z-score at least 0.3? input: `COC(=O)c1cn(C[C@@H](Cc2ccccc2)NC(=O)N[C@H](CO)CCc2oc(C(C)=O)c(C(=O)OC)c2C(=O)OC)nn1` Met

// inclusive: z-score at least 0.3? input: `COc1ccc(NC(=O)O[C@H]2[C@H](OC(=O)Nc3ccccc3)[C@H](OC(=O)Nc3ccccc3)[C@@H](OC)O[C@@H]2CO)cc1` Not met

// inclusive: z-score at least 0.3? input: `CC(C)C(=C=CC[C@H](O)c1cccc(OCCO)c1)C[C@H](O)c1cc(Cl)cc(Cl)c1O` Met

// inclusive: z-score at least 0.3? input: `COCCOC(=O)N1C(=O)[C@@]2(c3cc(C#CC4=CCCCC4)ccc31)[C@H](c1ccc(O)cc1)N1[C@H](c3ccccc3)[C@H](c3ccccc3)OC(=O)[C@H]1[C@@H]2C(=O)N1CCN(c2ncccn2)CC1` Met
